Values compiled from ChEMBL document CHEMBL1136548.

- Method description: Pharmacokinetic parameter expressed as plasma clearance in rat
- Assay type: ADME, organism-based
- Stated conditions: read-out: Clp
Recorded metric: clearance (mL/min/kg)

Chemical smiles: CCCN(c1ccccn1)C1CCN(C[C@H]2CN([C@@H](C(=O)O)C3CCCCC3)C[C@@H]2c2ccccc2)CC1
Numeric value: 53
//
Chemical smiles: CCCN(c1ncccn1)C1CCN(C[C@H]2CN([C@@H](C(=O)O)C3CCCCC3)C[C@@H]2c2cccc(F)c2)CC1
Numeric value: 13
//
Chemical smiles: CCCN(c1ncccn1)C1CCN(C[C@H]2CN([C@H](CC3CCC3)C(=O)O)C[C@@H]2c2cccc(F)c2)CC1
Numeric value: 28
//
Chemical smiles: CCCN(c1cncnc1)C1CCN(C[C@H]2CN([C@H](CC3CCC3)C(=O)O)C[C@@H]2c2cccc(F)c2)CC1
Numeric value: 81
//
Chemical smiles: CCCN(c1ccncn1)C1CCN(C[C@H]2CN([C@H](CC3CCC3)C(=O)O)C[C@@H]2c2cccc(F)c2)CC1
Numeric value: 90
//
Chemical smiles: CCCN(c1ncccn1)C1CCN(C[C@H]2CN([C@@H](C(=O)O)C3CCCCC3)C[C@@H]2c2ccccc2)CC1
Numeric value: 17
//
Chemical smiles: CCCN(c1nccc(C(F)(F)F)n1)C1CCN(C[C@H]2CN([C@H](CC3CCC3)C(=O)O)C[C@@H]2c2cccc(F)c2)CC1
Numeric value: 13
//
Chemical smiles: CCN(c1ncccn1)C1CCN(C[C@H]2CN([C@H](CC3CCC3)C(=O)O)C[C@@H]2c2cccc(F)c2)CC1
Numeric value: 26
